protocol-details: Dynamic light scattering (DLS) of mRNA/peptoid formulations: particle size and polydispersity
Type: physicochemical
test-context: volume average particle size/diameter by DLS; Fluc mRNA/peptoid formulation, 5:1 mass ratio peptoid:cargo
For each of the compounds below, state its Size (nm).
Report the value in nm with no unit label.

Find the recorded Size (nm) belonging to CCCCCCCCCCCCN(CC(N)=O)C(=O)CN(CCCCCCCCCCCC)C(=O)CN(CCc1ccc(OC)cc1)C(=O)CN(CCc1ccc(OC)cc1)C(=O)CN(CCN)C(=O)CN(CCc1ccc(OC)cc1)C(=O)CN(CCc1ccc(OC)cc1)C(=O)CN(CCN)C(=O)CN(CCc1ccc(OC)cc1)C(=O)CN(CCc1ccc(OC)cc1)C(=O)CNCCN and report it. 326.7

Query (compound): CCCCCCCCCCN(CC(N)=O)C(=O)CN(CCCCCCCCCC)C(=O)CN(CCc1ccccc1)C(=O)CN(CCc1ccccc1)C(=O)CN(CC1CCCN1)C(=O)CN(CCc1ccccc1)C(=O)CN(CCc1ccccc1)C(=O)CN(CC1CCCN1)C(=O)CN(CCc1ccccc1)C(=O)CN(CCc1ccccc1)C(=O)CNCC1CCCN1 (centres unmarked) ; field requested: Size (nm) 374.4

Fill in the blank: the reported Size (nm) of CCCCCCCCCCN(CC(N)=O)C(=O)CN(CCCCCCCCCC)C(=O)CN(CCc1ccccc1)C(=O)CN(CCc1ccccc1)C(=O)CNCCN is ____. 367.9

Entry under review: CCCCCCCCN(CC(N)=O)C(=O)CN(CCCCCCCC)C(=O)CN(CCc1ccccc1)C(=O)CN(CCc1ccccc1)C(=O)CN(CCN)C(=O)CN(CCc1ccccc1)C(=O)CN(CCc1ccccc1)C(=O)CN(CCN)C(=O)CN(CCc1ccccc1)C(=O)CN(CCc1ccccc1)C(=O)CNCCN . Reported Size (nm)? 356.9

Please give the measured Size (nm) for this compound: CCCCCCCCCCN(CC(N)=O)C(=O)CN(CCCCCCCCCC)C(=O)CN(CCc1ccccc1)C(=O)CN(CCc1ccccc1)C(=O)CN(CCN)C(=O)CN(CCc1ccccc1)C(=O)CN(CCc1ccccc1)C(=O)CNCCN 157

Look up Size (nm) for this compound: CCCCCCCCCCN(CC(N)=O)C(=O)CN(CCCCCCCCCC)C(=O)CN(CCCCCCCCCC)C(=O)CN(CCCCCCCCCC)C(=O)CN(CCCCCCCCCC)C(=O)CN(CCCCCCCCCC)C(=O)CN(CCc1ccccc1)C(=O)CN(CCc1ccccc1)C(=O)CN(CCN)C(=O)CN(CCc1ccccc1)C(=O)CN(CCc1ccccc1)C(=O)CN(CCN)C(=O)CN(CCc1ccccc1)C(=O)CN(CCc1ccccc1)C(=O)CNCCN 748.2

Quick check: Size (nm) of CCCCCCCCCCNCC(=O)N(CCN)CC(=O)N(CCc1ccccc1)CC(=O)N(CCc1ccccc1)CC(=O)N(CCN)CC(=O)N(CCc1ccccc1)CC(=O)N(CCc1ccccc1)CC(=O)N(CCN)CC(=O)N(CCc1ccccc1)CC(=O)N(CCc1ccccc1)CC(=O)N(CCCCCCCCCC)CC(N)=O ? 593

Sample CCCCCCCCCCN(CC(N)=O)C(=O)CN(CCCCCCCCCC)C(=O)CN(CCc1ccccc1)C(=O)CN(CCc1ccccc1)C(=O)CN(CCNC)C(=O)CN(CCc1ccccc1)C(=O)CN(CCc1ccccc1)C(=O)CN(CCNC)C(=O)CN(CCc1ccccc1)C(=O)CN(CCc1ccccc1)C(=O)CNCCNC — what was its Size (nm)? 438.7

All values here come from patent US20220323594A1.
